Entries and their measured pEC50 follow.
target: LCAT (Homo sapiens, UniProt P04180); construct: The obtained fraction was dialyzed against phosphate-buffered saline (pH 7.4) and used as an enzyme source and an acceptor for LCAT; test: LCAT Activity Measurement (In Vitro); details: EC50 of LCAT activation; HDL3 fraction from plasma of a healthy person as enzyme source and acceptor; [14C]cholesterol; 37° C., approximately 16 hours
Sequence (P04180 25-440): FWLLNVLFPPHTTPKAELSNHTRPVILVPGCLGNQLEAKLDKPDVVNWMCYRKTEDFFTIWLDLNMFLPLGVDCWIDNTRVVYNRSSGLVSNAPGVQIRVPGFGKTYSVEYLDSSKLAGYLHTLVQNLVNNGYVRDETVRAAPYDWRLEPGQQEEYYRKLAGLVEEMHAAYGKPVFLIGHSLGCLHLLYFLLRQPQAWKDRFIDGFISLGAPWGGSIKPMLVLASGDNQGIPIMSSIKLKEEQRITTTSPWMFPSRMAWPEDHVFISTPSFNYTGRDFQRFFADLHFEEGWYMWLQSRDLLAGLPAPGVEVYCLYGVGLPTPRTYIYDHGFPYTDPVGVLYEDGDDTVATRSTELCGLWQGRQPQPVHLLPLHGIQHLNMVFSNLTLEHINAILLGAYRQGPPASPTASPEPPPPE
pEC50: −log10 of the molar value.

{"compound": "O=C1CC(O)(C(F)(F)F)c2c(C3CCN(c4nc5ccccc5o4)CC3)n[nH]c2N1 (stereo not drawn)", "system": "LCAT (Homo sapiens, UniProt P04180)", "pEC50": 6.82}
{"compound": "CC(C)Oc1ccc(N2CCC(c3n[nH]c4c3C(O)(C(F)(F)F)CC(=O)N4)CC2)cn1 (stereo not drawn)", "system": "LCAT (Homo sapiens, UniProt P04180)", "pEC50": 7.00}
{"compound": "O=C1CC(O)(C(F)(F)F)c2c(C3CCN(c4ccc(Cl)nn4)CC3)n[nH]c2N1 (stereo not drawn)", "system": "LCAT (Homo sapiens, UniProt P04180)", "pEC50": 6.82}
{"compound": "O=C1CC(O)(C(F)(F)F)c2c(C3CCN(c4ccc(Br)cn4)CC3)n[nH]c2N1 (stereo not drawn)", "system": "LCAT (Homo sapiens, UniProt P04180)", "pEC50": 6.85}
{"compound": "O=C1CC(O)(C(F)(F)F)c2c(C3CCN(c4nc(C(F)(F)F)cs4)CC3)n[nH]c2N1 (stereo not drawn)", "system": "LCAT (Homo sapiens, UniProt P04180)", "pEC50": 7.10}
{"compound": "O=C1CC(O)(C(F)(F)F)c2c(C3CCN(c4ncc(-c5ccccc5)s4)CC3)n[nH]c2N1 (stereo not drawn)", "system": "LCAT (Homo sapiens, UniProt P04180)", "pEC50": 6.96}
